- Tested on: C. albicans ATCC 10231
MIC50 values, listed per item
Give the quantity in µg/mL, number only.

INSERT INTO assay_data (molecule, endpoint_unit, value_measured) VALUES
  ('CCCCCCCc1cc2c(=O)n(C[C@](O)(Cn3cncn3)c3ccc(F)cc3F)cnc2s1 [Formula 1b-03]', 'µg/mL', 0.5),
  ('CCCCCc1cc2c(=O)n(C[C@](O)(Cn3cncn3)c3ccc(F)cc3F)cnc2s1 [Formula 1b-02]', 'µg/mL', 0.12),
  ('CCCCCc1cc2c(=O)n(C[C@@](O)(Cn3cncn3)c3ccc(F)cc3F)cnc2s1 [Formula 1a-02]', 'µg/mL', 8),
  ('CCCc1cc2c(=O)n(C[C@](O)(Cn3cncn3)c3ccc(F)cc3F)cnc2s1 [Formula 1b-04]', 'µg/mL', 0.06);

Query :: Lookup: MIC50 / C. albicans ATCC 10231 / OC(Cn1cncn1)(Cn1cncn1)c1ccc(F)cc1F [FLU, Fluconazole]
Result :: 1

Query :: Hello, I am looking for reported MIC50 with C. albicans ATCC 10231 for CCCCCCc1cc2c(=O)n(C[C@](O)(Cn3cncn3)c3ccc(F)cc3F)cnc2s1 [Formula 1b-01] . Could you help?
Result :: 0.12
